# assayProtocol: ATG_CMV_CIS: Attagene CIS-FACTORIAL HepG2 Assay for human CMV (Internal Marker) (AID 2282928);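 note: endpoint acts as a background internal control marker rather than a target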
# condition: HepG2 CMV promoter reporter, transcription factor profiling; actives raise or lower the signal
Activity calls are given as the source filed them. Rule for the calls: active = hit-call score of the fitted dose curve at least 0.9, where 1 is the maximum; inactive = score below 0.9.
Labels: true (1) = active, false (0) = inactive

1. C#CCOC(=O)/C=C(C)/C=C/CC(C)CCCC(C)C (configuration not stated)
true (1)
2. Oc1c(Cl)cc(Cl)cc1Cl
false (0)
3. N#CCCC(Br)(C#N)CBr (configuration not stated)
true (1)
4. C=CCCl
false (0)
5. CN(C)[C@@H]1C(=O)C(C(N)=O)=C(O)[C@@]2(O)C(=O)C3=C(O)c4c(O)ccc(Cl)c4[C@@](C)(O)[C@H]3C[C@@H]12
true (1)
6. CC(C)N(C(=O)CCl)c1ccccc1
false (0)
7. CCC[CH2][Sn]([Cl])([Cl])[CH2]CCC
true (1)
8. C=CCOC(N)=O
false (0)
9. C=C(C)[C@@H]1CC=C(C=O)CC1
false (0)
10. CCCCCCCCCCCCCl
false (0)
11. O=[N+]([O-])c1c2ccccc2cc2ccccc12
false (0)
12. Cc1cc(C)cc(C)c1
false (0)
13. CC(c1ccccc1)(c1ccc(O)cc1)c1ccc(O)cc1
false (0)
14. O=S(=O)(F)C(F)(F)C(F)(F)C(F)(F)C(F)(F)F
false (0)
15. COc1ccccc1N
false (0)
16. CCOC(=O)Cc1ccccc1
false (0)
17. Fc1cccc(Cl)c1CCl
false (0)
18. O=[N+]([O-])c1ccc(Nc2ccccc2)cc1
false (0)
19. CCCCCCCCCCCCBr
false (0)
20. CNC(=O)N(C)c1nc2ccccc2s1
false (0)
21. CCNc1nc(NCC)nc(SC)n1
false (0)
22. ClCc1ccccc1Cl
false (0)
23. CCOP(=S)(OCC)OP(=S)(OCC)OCC
false (0)
24. CCOC(=O)CCN(SN(C)C(=O)Oc1cccc2c1OC(C)(C)C2)C(C)C
false (0)
25. CCCCN(CCCC)C(=S)[S-].CCCCN(CCCC)C(=S)[S-].[Ni+2]
false (0)
26. Oc1cccc(-c2ccccc2)c1
true (1)
27. C1CN2CCN1CC2
false (0)
